Target Entity: cAMP and cAMP-inhibited cGMP 3',5'-cyclic phosphodiesterase 10A (Homo sapiens, UniProt Q9Y233)
Sequence (Q9Y233 whole entry): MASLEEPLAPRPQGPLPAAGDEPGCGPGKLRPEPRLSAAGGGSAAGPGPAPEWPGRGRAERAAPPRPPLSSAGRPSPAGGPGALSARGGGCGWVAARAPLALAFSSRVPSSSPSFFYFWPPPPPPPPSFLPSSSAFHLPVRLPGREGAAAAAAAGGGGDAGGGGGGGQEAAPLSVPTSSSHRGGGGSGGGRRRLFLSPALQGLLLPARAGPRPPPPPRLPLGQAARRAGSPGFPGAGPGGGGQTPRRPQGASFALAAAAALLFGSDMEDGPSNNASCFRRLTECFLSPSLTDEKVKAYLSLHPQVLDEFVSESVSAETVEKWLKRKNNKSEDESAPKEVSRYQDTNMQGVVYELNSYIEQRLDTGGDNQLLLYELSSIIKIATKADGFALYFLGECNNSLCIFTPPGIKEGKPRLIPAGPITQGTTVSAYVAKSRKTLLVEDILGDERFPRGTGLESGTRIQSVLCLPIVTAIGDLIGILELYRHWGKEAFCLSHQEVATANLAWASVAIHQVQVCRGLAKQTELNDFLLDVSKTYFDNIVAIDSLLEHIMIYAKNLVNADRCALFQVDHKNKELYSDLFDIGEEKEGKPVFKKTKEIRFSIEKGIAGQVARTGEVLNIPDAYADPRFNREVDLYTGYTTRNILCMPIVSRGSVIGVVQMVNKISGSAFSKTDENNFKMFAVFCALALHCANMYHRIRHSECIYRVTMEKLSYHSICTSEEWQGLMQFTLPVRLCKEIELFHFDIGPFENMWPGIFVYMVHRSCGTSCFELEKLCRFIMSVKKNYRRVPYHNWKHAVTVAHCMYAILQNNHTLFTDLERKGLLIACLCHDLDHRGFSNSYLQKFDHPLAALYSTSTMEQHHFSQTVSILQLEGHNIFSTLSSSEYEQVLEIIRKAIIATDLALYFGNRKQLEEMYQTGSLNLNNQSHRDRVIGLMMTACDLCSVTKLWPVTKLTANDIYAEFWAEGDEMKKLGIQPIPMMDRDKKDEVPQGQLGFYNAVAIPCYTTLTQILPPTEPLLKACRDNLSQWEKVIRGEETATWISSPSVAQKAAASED
Endpoint Name: pIC50
Scale note: pIC50 = -log10(concentration in M).

// worked examples, pIC50 included
Compound | Endpoint Name | Endpoint Value
O=C1CCCC(c2cccnc2Oc2ccc(C(=O)c3nc4ccccc4[nH]3)cc2)CC1 (centres undefined) | pIC50 | 10.11
COC[C@H](C)NC(=O)c1cccnc1Oc1ccc(C(=O)c2nc3ccccc3[nH]2)cc1 | pIC50 | 7.89
O=C(c1ccc(Oc2ncccc2[C@H]2CC[C@H](O)CC2)cc1)c1nc2ccccc2[nH]1 | pIC50 | 10.00
O=C(c1ccc(Oc2ncccc2[C@H]2CC[C@](O)(C(F)(F)F)CC2)cc1)c1nc2ccccc2[nH]1 | pIC50 | 7.90
OC(c1ccc(Oc2ncccc2C2CCOCC2)cc1)c1nc2ccccc2[nH]1 (centres undefined) | pIC50 | 7.34
O=C(c1ccc(Oc2ncccc2[C@H]2CC[C@@H](CO)C2)cc1)c1nc2ccccc2[nH]1 | pIC50 | 9.67

Value lookup for pIC50; key = `O=C(c1ccc(Oc2ncccc2-c2cc[nH]c(=O)c2)cc1)c1nc2ccccc2[nH]1`
8.93

`O=C(c1ccc(Oc2ncccc2-c2ccnc3ccccc23)cc1)c1nc2ccccc2[nH]1` , same question.
9.17

`CC(C)(C)OC(=O)N1CC=C(c2cccnc2Oc2ccc(Nc3nc4ccccc4s3)cc2)CC1` , same question.
7.35

====

Target Entity: cAMP and cAMP-inhibited cGMP 3',5'-cyclic phosphodiesterase 10A (Homo sapiens)
Reported pIC50 values for a set of molecules
Scale note: pIC50 = -log10(concentration in M).

Value lookup for pIC50; key = `CC(=O)N1CC=C(c2cccnc2Oc2ccc(Nc3nc4ccccc4s3)cc2)CC1`
9.44

====

Reported pIC50 values, UniProt Q9Y233.
Scale note: pIC50 = -log10(concentration in M).

// worked examples, pIC50 included
Compound | Target Entity | pIC50
O=C(c1ccc(Oc2ncccc2C2CCOC2)cc1)c1nc2ccccc2n1CCF (stereo not given) | UniProt Q9Y233 | 8.64
N#Cc1cccc(-c2cccnc2Oc2ccc(Nc3nc4ccccc4s3)cc2)c1 | UniProt Q9Y233 | 7.74
O=C(c1ccc(Oc2ncccc2C2CCNCC2)cc1)c1nc2ccccc2[nH]1 | UniProt Q9Y233 | 8.68
FC(F)(F)c1cc(-c2cccnc2Oc2ccc(Nc3nc4ccccc4[nH]3)cc2)ccn1 | UniProt Q9Y233 | 7.44
Cc1cnc(Oc2ccc(C(=O)c3nc4ccccc4[nH]3)cc2)c(-c2ccnc(C)c2)c1 | UniProt Q9Y233 | 8.86

// lookup pIC50 | system=UniProt Q9Y233 | key= O=C(c1ccc(Oc2ncccc2Br)cc1)c1nc2ccccc2n1C1CCCCO1 (stereo not given)
5.79

`COc1ccnc(-c2cccnc2Oc2ccc(C(=O)c3nc4ccccc4[nH]3)cc2)c1` , same question.
8.39

====

Target Entity: cAMP and cAMP-inhibited cGMP 3',5'-cyclic phosphodiesterase 10A (Homo sapiens, UniProt Q9Y233)
Reported IC50 values for a set of molecules
Quick note: give the figure in nM, leave out the unit.

Structure Notation | IC50 [nM]
O[C@H]1CC[C@H](c2cccnc2Oc2ccc(Nc3nc4ccccc4s3)cc2)C1 | 1.21
C[C@]1(O)CCC[C@H](c2cccnc2Oc2ccc(Nc3nc4ccccc4s3)cc2)C1 | 6.87
c1cncc(-c2cccnc2Oc2ccc(Nc3nc4ccccc4[nH]3)cc2)c1 | 0.179

Value lookup for IC50; key = `c1cnc(Oc2ccc(Nc3nc4ccccc4s3)cc2)c([C@H]2CCCO2)c1`
54.2

`COc1cccc(-c2cccnc2Oc2ccc(Nc3nc4ccccc4s3)cc2)n1` , same question.
164

`COc1cc(-c2cccnc2Oc2ccc(Nc3nc4ccccc4s3)cc2)ccn1` , same question.
11.9

====

Reported log10(IC50) values for a set of compounds
Target Entity: cAMP and cAMP-inhibited cGMP 3',5'-cyclic phosphodiesterase 10A (Homo sapiens, UniProt Q9Y233)
Scale type: logarithmic (base 10). Underlying IC50 unit: nM.

Value lookup for log10(IC50); key = `Cc1ccc(-c2cccnc2Oc2ccc(Nc3nc4ccccc4s3)cc2)cn1`
-0.66

`CC(=O)N1CCC(c2cccnc2Oc2ccc(C(=O)c3nc4ccccc4n3C)cc2)CC1` , same question.
0.03

====

Reported pIC50 values for a set of compounds
Target Entity: cAMP and cAMP-inhibited cGMP 3',5'-cyclic phosphodiesterase 10A (Homo sapiens, UniProt Q9Y233)
Scale note: pIC50 = -log10(concentration in M).

// worked examples, pIC50 included
Structure Notation | Endpoint Value
O[C@H]1CC[C@@H](c2cccnc2Oc2ccc(Nc3nc4ccccc4s3)cc2)C1 | 8.60
O=C(c1ccc(Oc2ncccc2-c2cccnc2)cc1)c1nc2ncccc2[nH]1 | 8.32
O[C@H]1CCC[C@@H](c2cccnc2Oc2ccc(Nc3nc4ccccc4s3)cc2)C1 | 8.43
CSc1cncc(-c2cccnc2Oc2ccc(C(=O)c3nc4ccccc4[nH]3)cc2)c1 | 8.97
C[C@]1(O)CC[C@@H](c2cccnc2Oc2ccc(C(=O)c3nc4ccccc4[nH]3)cc2)CC1 | 8.79

Value lookup for pIC50; key = `c1cnc(Oc2ccc(Nc3nc4ccccc4s3)cc2)c([C@@H]2CCCOC2)c1`
8.60

`O[C@H]1CC[C@H](c2cccnc2Oc2ccc(Nc3nc4ccccc4s3)cc2)CC1` , same question.
8.20

`CC(=O)N1CCC(c2cccnc2Oc2ccc(Nc3nc4ccccc4s3)cc2)CC1` , same question.
9.76

`O=C(c1ccc(Oc2ncccc2-c2cccnc2)cc1)c1nc2ccccc2s1` , same question.
7.49

`CC(=O)N1CC[C@@H](c2cccnc2Oc2ccc(C(=O)c3nc4ccccc4[nH]3)cc2)C1` , same question.
9.28

`O=C(c1ccc(Oc2ncccc2[C@H]2CCC[C@H](O)C2)cc1)c1nc2ccccc2[nH]1` , same question.
8.77

====

Target Entity: cAMP and cAMP-inhibited cGMP 3',5'-cyclic phosphodiesterase 10A (Homo sapiens)
Endpoint Name: IC50 (nM)
Quick note: give the figure in nM, leave out the unit.

Structure Notation | Endpoint Value
Fc1ccc(Cn2c(Nc3ccc(Oc4ncccc4C4CCOCC4)cc3)nc3ccccc32)cc1 | 9.12

// lookup IC50 | system=cAMP and cAMP-inhibited cGMP 3',5'-cyclic phosphodiesterase 10A (Homo sapiens) | key= `C[C@]1(O)CCC[C@H](c2cccnc2Oc2ccc(C(=O)c3nc4ccccc4[nH]3)cc2)C1`
1.14

`Cc1cc(-c2cccnc2Oc2ccc(Nc3nc4ccccc4s3)cc2)ccn1` , same question.
5

`c1cnc(Oc2ccc(Nc3nc4ccccc4s3)cc2)c(-c2ccnc3ccccc23)c1` , same question.
7.22

`CC(C)(CNC(=O)c1cccnc1Oc1ccc(C(=O)c2nc3ccccc3[nH]2)cc1)c1ccccn1` , same question.
1.48

`COc1ccc(-c2cccnc2Oc2ccc(C(=O)c3nc4ccccc4[nH]3)cc2)cn1` , same question.
1.27

`O=C1C=C(c2cccnc2Oc2ccc(C(=O)c3nc4ccccc4[nH]3)cc2)CC1` , same question.
1.01

`COc1ccncc1-c1cccnc1Oc1ccc(C(=O)c2nc3ccccc3[nH]2)cc1` , same question.
0.0725

`N#Cc1ccc2[nH]c(Nc3ccc(Oc4ncccc4C(F)(F)F)cc3)nc2c1` , same question.
112

`O=C(c1ccc(Oc2ncccc2-c2ccnc(Cl)c2)cc1)c1nc2ccccc2[nH]1` , same question.
1.63

====

Reported pIC50 values, cAMP and cAMP-inhibited cGMP 3',5'-cyclic phosphodiesterase 10A (Homo sapiens).
Scale note: pIC50 = -log10(concentration in M).

// worked examples, pIC50 included
Structure Notation | pIC50
O=C(c1ccc(Oc2ncccc2Br)cc1)c1nc2ccccc2[nH]1 | 7.35
COc1cccc(-c2cccnc2Oc2ccc(C(=O)c3nc4ccccc4[nH]3)cc2)n1 | 8.63
C[C@]1(O)CC[C@H](c2cccnc2Oc2ccc(C(=O)c3nc4ccccc4[nH]3)cc2)CC1 | 8.85
c1cnc(Oc2ccc(Nc3nc4ccccc4s3)cc2)c(-c2ccncn2)c1 | 7.65
CC(=O)N1CCC(c2cccnc2Oc2ccc([C@H](O)c3nc4ccccc4[nH]3)cc2)CC1 | 8.38

Value lookup for pIC50; key = `COc1nc2ccccc2cc1-c1cccnc1Oc1ccc(C(=O)c2nc3ccccc3[nH]2)cc1`
6.38

`O=C(c1ccc(Oc2ncccc2C(=O)NCCc2ccccn2)cc1)c1nc2ccccc2[nH]1` , same question.
8.76

`Cn1c(C(=O)c2ccc(Oc3ncccc3-c3ccnc(F)c3)cc2)nc2ccccc21` , same question.
7.99

====

Target Entity: cAMP and cAMP-inhibited cGMP 3',5'-cyclic phosphodiesterase 10A (Homo sapiens, UniProt Q9Y233)
Endpoint Name: IC50 (nM)
Quick note: give the figure in nM, leave out the unit.

// worked examples, IC50 included
Structure Notation | Quantity Unit | Endpoint Value
COc1ccc(-c2cccnc2Oc2ccc(C(=O)c3nc4ccccc4[nH]3)cc2)nc1 | nM | 8.77
C[C@H](Cc1ccccn1)NC(=O)c1cccnc1Oc1ccc(C(=O)c2nc3ccccc3[nH]2)cc1 | nM | 6.83
O=C(c1ccc(Oc2ncccc2[C@@H]2CCOC2)cc1)c1nc2ccccc2[nH]1 | nM | 0.92
O=C(c1ccc(Oc2ncccc2N2CCCC2)cc1)c1nc2ccccc2[nH]1 | nM | 14
COc1cccnc1-c1cccnc1Oc1ccc(C(=O)c2nc3ccccc3[nH]2)cc1 | nM | 17.1

Value lookup for IC50; key = `C[C@]1(O)CC[C@@H](c2cccnc2Oc2ccc(Nc3nc4ccccc4s3)cc2)CC1`
12.6

`c1cnc(Oc2ccc(Nc3nc4ccccc4s3)cc2)c(-c2cccc3ncccc23)c1` , same question.
6.91

`COC[C@H](Cc1ccccc1)NC(=O)c1cccnc1Oc1ccc(C(=O)c2nc3ccccc3[nH]2)cc1` , same question.
1.64

`O=C(c1ccc(Oc2ncccc2[C@@H]2CCCOCC2)cc1)c1nc2ccccc2[nH]1` , same question.
0.0505

`CC(=O)N1CC=C(c2cccnc2Oc2ccc(C(=O)c3nc4ccccc4[nH]3)cc2)CC1` , same question.
0.194

`COc1ccncc1-c1cccnc1Oc1ccc(Nc2nc3ccccc3s2)cc1` , same question.
0.902

`O[C@H]1CC[C@@H](c2cccnc2Oc2ccc(Nc3nc4ccccc4s3)cc2)CC1` , same question.
1.63

`Cc1cc(-c2cccnc2Oc2ccc(C(=O)c3nc4ccccc4[nH]3)cc2)ccn1` , same question.
0.76

`O=C(c1ccc(Oc2ncccc2N2CCOCC2)cc1)c1nc2ccccc2s1` , same question.
98.8
